B1: OR4K15 (parent)
chain: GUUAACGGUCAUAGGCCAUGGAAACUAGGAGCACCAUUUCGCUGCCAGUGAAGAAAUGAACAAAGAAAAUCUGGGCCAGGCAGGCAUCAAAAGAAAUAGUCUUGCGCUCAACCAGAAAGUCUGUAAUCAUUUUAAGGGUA

variants of: B1; assay: self-cleavage, relative activity (ratio to wild type); higher = more cleavage; in vitro, sequencing; the parent is a self-cleaving ribozyme
Reported self-cleavage values are given for each entry in this list.
# print the numeric value only

For orientation, consider the following solved cases.
>>> obs_value("GUUAACGGUCAUAGGCCAUGGAAACUAGGAGCACCAUUUCGCUGCCGGUGAAGAAAUGAACAAAGAAAAUCUGGGCCAGGCAGGCAUCAAAAGAAAUAGUCUUGCGCUCAACCAGAAAGUCUGUAAACAUUUUAAGGGUA [A47G U127A]")
1.33
>>> obs_value("GUUAACGGUCAUAGGCCAUGGAAACUAGGAGCACCUUUUCGCUGCCAGUGAAGAAAUGAACAAAGAAAAUCUGGGCCAGGCAGGCAUCAAGAGAAAUAGUCUUGCGCUCAACCAGAAAGUCUGUAAUCAUUUUAAGGGUA [A36U A91G]")
1.42
>>> obs_value("GUUAACGGUCAUAGGCCUUGGAAACUAGGAGCACCAUUUCGCUGCCAGUGAAGAAAUGAACAAAGAAAAUCUGGGCCAGGCAGGCAUCAAAAGAAAUCGUCUUGCGCUCAACCAGAAAGUCUGUAAUCAUUUUAAGGGUA [A18U A98C]")
1.13
>>> obs_value("GUUAACGGUCAUAGGCCAUGGAAACUAGGAGCACCAUUUCGCUCCCAGUGAAGAAAUGAACAAAGAAAAUCUGGGCCAGGCAGGCAUCAAAAGAAAUAGUCUUGCGCUCAACCAGAGAGUCUGUAAUCAUUUUAAGGGUA [G44C A117G]")
1.69
>>> obs_value("GUUAACGGUCAUAGGCCAUGGAAACUAGGAGCACCAUUUCGCUGCCAGUGAAGAAAUGAACAAAGAAAAUCUGGGCCAGGCAGGCAUCAAAAGAAAUAGUCUUGCGCUCAACCAGAAAGUCUGUAAGCAUUUUAAGGGUA [U127G]")
1.32

Just so you know, measured self-cleavage for GUUAACGGUCAUAGGCCAUGGAAACUAGGAGCGCCAUUUCGCUGCCAGUGAAGAAAUGAACAAAGAAAAUCUGGGUCAGGCAGGCAUCAAAAGAAAUAGUCUUGCGCUCAACCAGAAAGUCUGUAAUCAUUUUAAGGGUA [A33G C76U] came out at 0.12

Every entry's value here was drawn from the RNAGym collection of RNA variant scans (doi:10.7554/elife.90254).
